// reported IC50 for each item listed
- TARGET_UNDER_TEST: JAK3 (Homo sapiens (Human), UniProt P52333)
- Sequence (P52333 whole entry): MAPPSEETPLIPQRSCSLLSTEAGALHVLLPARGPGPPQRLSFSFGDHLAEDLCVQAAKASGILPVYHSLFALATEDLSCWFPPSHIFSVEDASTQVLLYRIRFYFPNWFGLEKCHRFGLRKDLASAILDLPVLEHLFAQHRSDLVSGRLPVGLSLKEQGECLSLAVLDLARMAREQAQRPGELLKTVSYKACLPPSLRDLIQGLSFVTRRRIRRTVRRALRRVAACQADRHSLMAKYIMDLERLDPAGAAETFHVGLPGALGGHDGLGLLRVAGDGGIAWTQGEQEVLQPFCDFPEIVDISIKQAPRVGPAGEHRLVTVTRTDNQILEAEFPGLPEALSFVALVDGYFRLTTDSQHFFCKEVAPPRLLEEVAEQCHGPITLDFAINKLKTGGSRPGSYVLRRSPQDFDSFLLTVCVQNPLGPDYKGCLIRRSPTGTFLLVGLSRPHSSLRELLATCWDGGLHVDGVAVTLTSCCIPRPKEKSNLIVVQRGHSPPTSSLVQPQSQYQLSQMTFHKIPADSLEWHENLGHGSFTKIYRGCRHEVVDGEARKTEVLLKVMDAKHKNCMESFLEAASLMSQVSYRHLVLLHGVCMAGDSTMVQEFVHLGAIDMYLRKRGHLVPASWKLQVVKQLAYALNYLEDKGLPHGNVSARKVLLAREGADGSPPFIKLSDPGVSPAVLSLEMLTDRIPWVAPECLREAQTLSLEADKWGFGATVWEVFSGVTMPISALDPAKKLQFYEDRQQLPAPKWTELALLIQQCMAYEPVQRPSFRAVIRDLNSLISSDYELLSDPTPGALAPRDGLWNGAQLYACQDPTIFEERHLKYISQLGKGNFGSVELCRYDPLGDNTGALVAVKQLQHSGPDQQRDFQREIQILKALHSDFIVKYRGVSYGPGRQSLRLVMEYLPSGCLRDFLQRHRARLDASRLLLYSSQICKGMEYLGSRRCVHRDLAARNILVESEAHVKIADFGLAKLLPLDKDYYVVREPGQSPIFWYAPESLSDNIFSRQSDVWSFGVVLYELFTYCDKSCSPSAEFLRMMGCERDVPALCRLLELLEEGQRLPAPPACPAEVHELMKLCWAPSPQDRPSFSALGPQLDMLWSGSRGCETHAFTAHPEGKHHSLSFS
- ASSAY_TEXT: JAK3 enzymatic inhibition assay (ADP-Glo luminescence)
- Assay type: biochemical

SMILES_RECORD: CCS(=O)(=O)N1CC(CC#N)(n2cc(-c3ncnc4[nH]ccc34)cc2C#N)C1
IC50: 10 to 30 nM
--
SMILES_RECORD: CC(C)S(=O)(=O)N1CC(CC#N)(n2cc(-c3c(C#N)cnc4[nH]ccc34)cn2)C1
IC50: 10 to 30 nM
--
SMILES_RECORD: CCS(=O)(=O)N1CC(CC#N)(n2cc(-c3c(C#N)cnc4[nH]ccc34)cn2)C1
IC50: 33.8 nM
--
SMILES_RECORD: CCS(=O)(=O)N1CC(CC#N)(n2cc(-c3ccnc4[nH]ccc34)cn2)C1
IC50: 47.9 nM
--
SMILES_RECORD: CC(C)CS(=O)(=O)N1CC(CC#N)(n2cc(-c3ccnc4[nH]ccc34)cn2)C1
IC50: > 30 nM
--
SMILES_RECORD: CCS(=O)(=O)N1CC([C@H](C)C#N)(n2cc(-c3c(C#N)cnc4[nH]ccc34)cn2)C1
IC50: 10 to 30 nM
--
SMILES_RECORD: N#CCC1(n2cc(-c3ccnc4[nH]ccc34)cn2)CN(S(=O)(=O)N2CCCC2)C1
IC50: > 30 nM
--
SMILES_RECORD: CS(=O)(=O)N1CC(CC#N)(n2cc(-c3ccnc4[nH]ccc34)cn2)C1
IC50: 10.3 nM
--
SMILES_RECORD: CCS(=O)(=O)N1CC([C@@H](C)C#N)(n2cc(-c3c(C#N)cnc4[nH]ccc34)cn2)C1
IC50: 10 to 30 nM
--
SMILES_RECORD: CCS(=O)(=O)N1CC(CC#N)(n2cc(-c3ccnc4[nH]ccc34)c(C)n2)C1
IC50: > 30 nM
--
SMILES_RECORD: CC1(S(=O)(=O)N2CC(CC#N)(n3cc(-c4ccnc5[nH]ccc45)cn3)C2)CC1
IC50: 23.6 nM
--
SMILES_RECORD: CCS(=O)(=O)N1CC([C@H](C)C#N)(n2cc(-c3ncnc4[nH]ccc34)cn2)C1
IC50: 10 to 30 nM
--
SMILES_RECORD: N#CCC1(n2cc(-c3ccnc4[nH]ccc34)cn2)CN(S(=O)(=O)CCC(F)(F)F)C1
IC50: 36.5 nM
